- target-desc: T1, Epstein-Barr virus BHRF1 a.a. 1-161 with C-terminal avi-6his tag (Epstein-Barr virus)
- T1 construct: also called EBV BHRF1; BHRF1-biotin
- T1 chain: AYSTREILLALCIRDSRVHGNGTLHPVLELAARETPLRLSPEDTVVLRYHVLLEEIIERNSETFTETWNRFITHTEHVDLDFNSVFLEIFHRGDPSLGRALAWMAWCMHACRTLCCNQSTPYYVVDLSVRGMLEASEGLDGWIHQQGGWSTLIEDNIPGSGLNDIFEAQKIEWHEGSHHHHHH
- method-notes: yeast display library, FACS sort at 400 nM BHRF1, deep sequencing
Answer f if Log2 enrichment ratio is under -2 log2, and t if it is -2 log2 or more.

| binder | assigned-category |
| --- | --- |
| Index 66 (designed binder) GRSKDDATKEAWERLERLLKEFKEKAEKLRDKAQAHYVYKQFALKVTILWIAWALKLIGDAFNFIEEAEKKMRENRERNLISEDDAREEKRKLEEFARRASKKANKIGDDLDRQLELG | f |
| Index 29 (designed binder) GEVAKDLAKLAIDLAKKLMLLFWWFFELFKLFAKFTDEWQEWKARGTAFWIALSLAAIGDFFNARRRAELQAREGKQKGLTTEEKEKRWREHLKEAWEKLEKISRLAFLFAQEAENQG | f |
| Index 40 (designed binder) GNEAEQRREEFKEIMEKKKDEAEKKSEKIKRLALAFDLSDDDKTKATDEWIAISLEIIGDAFNFGEGLKDEAKRRKKRGLKRDEEVDKFEKIAEQAIEELRKLAEEADERGAKHLRDG | f |
| Index 02 (designed binder) GKSLLGIALEALEEAKRDLEKAKKQMEEMLKKKWKFDTTRDLKARASAEWIAAALKAIGDRFNAKLLIELGLDELFNKGLITQDIKEDIKRRAEEIFEKIERLIKQAIKDKDRFEKLG | t |
| Index 08 (designed binder) GWDARRALKYVYERMREDLEYARNQIDNMEDRADQYDARTEERKEFTKRWIALALMLIGDGFNAFERAKEWIDDGKNNNQRSSDEADYAKDEALKFIFYAAFEARRKGDELDKKAEGG | t |
| Index 14 (designed binder) GLSADDLFDYAEDRMREGWKDFEELAGEAEKKAKEHTLSDQERREATEKWIAAALELIGDAFNAIRWAEELGKLYVKLNLDDKQKVEELKKKLEERAKEEAQKARKRGDKLEDLADSG | t |
| Index 34 (designed binder) GKFKKLFENYAELFARWVADKGKKLAEELREKAEKGLKLQKLWLIFTMIWIAIMLMSIGDAFNLALLAELWVQAAKNYGWLRDNEADEAEDRVRKFADEASRRALEKGLEALRKILEG | f |
| Index 21 (designed binder, also called computational precursor for BbpD04) GFDWKKVLDKAKDLAENDVREAKQKLEEFYKKAMKLDLTQEMRRKLMLEWIAAMLMAIGDIFNAIEQGKQEADKLKKLGKVLSQLLDELKRRLEELKEEAALKAHDFGREFELKLLFG | f |
